The measurements presented in this section are drawn from patent US12472193B2.

Target: TLR 4 (Mus musculus, UniProt Q9JHF9+Q9QUK6)
Construct: endogenous in cells; host or cells: RAW264.7 (ATCC)
Sequence (Q9QUK6 26-835): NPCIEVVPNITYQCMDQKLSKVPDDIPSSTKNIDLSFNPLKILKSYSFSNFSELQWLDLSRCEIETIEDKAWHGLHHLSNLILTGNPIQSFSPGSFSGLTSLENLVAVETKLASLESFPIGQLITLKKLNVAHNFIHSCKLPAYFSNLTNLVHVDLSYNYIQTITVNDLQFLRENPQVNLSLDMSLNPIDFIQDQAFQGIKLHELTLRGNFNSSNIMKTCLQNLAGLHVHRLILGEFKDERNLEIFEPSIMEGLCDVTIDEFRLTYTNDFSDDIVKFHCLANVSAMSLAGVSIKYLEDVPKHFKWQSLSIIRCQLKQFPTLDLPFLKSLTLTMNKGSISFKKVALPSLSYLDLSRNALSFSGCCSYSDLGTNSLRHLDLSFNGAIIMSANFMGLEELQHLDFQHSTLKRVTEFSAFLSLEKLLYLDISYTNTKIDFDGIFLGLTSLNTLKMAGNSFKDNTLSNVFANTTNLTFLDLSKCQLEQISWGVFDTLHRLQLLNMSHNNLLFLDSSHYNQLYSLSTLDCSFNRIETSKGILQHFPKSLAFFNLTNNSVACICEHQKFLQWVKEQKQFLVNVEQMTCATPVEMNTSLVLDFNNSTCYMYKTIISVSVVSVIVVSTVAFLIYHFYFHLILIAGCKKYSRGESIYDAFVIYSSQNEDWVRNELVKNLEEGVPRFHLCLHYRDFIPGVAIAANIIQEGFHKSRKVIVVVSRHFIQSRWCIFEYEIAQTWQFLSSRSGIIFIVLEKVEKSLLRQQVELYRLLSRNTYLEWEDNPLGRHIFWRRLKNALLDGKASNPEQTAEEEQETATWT
Sequence (Q9JHF9 19-160): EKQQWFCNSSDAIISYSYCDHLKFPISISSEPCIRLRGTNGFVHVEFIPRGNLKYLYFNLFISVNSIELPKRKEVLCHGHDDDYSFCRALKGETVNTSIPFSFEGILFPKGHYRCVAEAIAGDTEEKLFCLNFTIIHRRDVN
Test: LPS-induced TNF-α secretion by RAW264.7 cells (TLR 4 antagonism)
Type: cell-based
Conditions: RAW264.7, 10 ng/mL LPS, 4 hours, lipid 100 to 0.008 μg/mL
Experimental: The mouse macrophage cell line, RAW264.7, was obtained from ATCC and maintained in DMEM, supplemented with 10% bovine growth serum and 1× penicillin streptomycin. […] Subsequently, the media were collected, diluted and an enzyme-linked immunosorbent assay (ELISA) was performed to quantify TNFα release by cells. […] For quantitative comparisons between POPG analogs and POPG, concentration-dependent inhibition studies were performed and IC50 values were determined. […]
reported.metric: IC50 values (inhibition of TNFα release) (µg/mL)
Form entry: value (µg/mL) — number only.

Qu. So what does the record say about IC50 values (inhibition of TNFα release) for CCCCCCCC/C=C\CCCCCCCC(=O)O[C@H](COC(=O)CCCCCCCCCCCCCCC)COP(=O)(O)OCC(O)C(O)C(O)CO (stereo partly drawn) [POPX] ?
Ans. 0.52

Qu. So what does the record say about IC50 values (inhibition of TNFα release) for CCCCCCCCC=CCCCCCCCCOCC(COP(=O)(O)OCC(O)C(O)C(O)CO)OCCCCCCCCC=CCCCCCCCC (mixture of isomers) [18:1 DEPX] ?
Ans. 0.33

Qu. So what does the record say about IC50 values (inhibition of TNFα release) for CCCCCCCC/C=C\CCCCCCCC(=O)O[C@H](COC(=O)CCCCCCCCCCCCCCC)COP(=O)(O)OCC(O)CO (stereo partly drawn) [POPG, palmitoyl-oleoyl-phosphatidylglycerol, reference compound] ?
Ans. 3.33
